The reported measurements were obtained from ChEMBL document CHEMBL4665801.

molecular target: L-lactate dehydrogenase A chain (Homo sapiens, UniProt P00338); assay: Inhibition of GS[HiBiT]GS-tagged LDHA (unknown origin) expressed in HEK-293T cells measured after 1 hr by […]; assay type: cell-based
Reported endpoint: IC50 (µM)

                            compound_string  recorded_value
0  Cc1ccc(C#Cc2cc(-c3nn(-c4nc(C(=O)O)cs4)c(CC4CC4)c3Cc3ccc(S(N)(=O)=O)c(F)c3)ccc2F)o1           0.079
1  CC#Cc1cc(-c2nn(-c3nc(C(=O)O)cs3)c(CC3CC3)c2Cc2ccc(S(N)(=O)=O)c(F)c2)ccc1F           0.119

(a) NS(=O)(=O)c1ccc(Cc2c(-c3cccc(-c4ccccc4)c3)nn(-c3nc(C(=O)O)cs3)c2CC(F)(F)F)cc1
(b) CCCC#Cc1cc(-c2nn(-c3nc(C(=O)O)cs3)c(CC3CC3)c2Cc2ccc(S(N)(=O)=O)c(F)c2)ccc1F
(c) NS(=O)(=O)c1ccc(Cc2c(-c3ccc(F)c(C#CCCO)c3)nn(-c3nc(C(=O)O)cs3)c2CC2CC2)cc1F
(d) Cc1ccc(C#Cc2cccc(-c3nn(-c4nc(C(=O)O)cs4)c(CCC4CC4)c3Cc3ccc(S(N)(=O)=O)c(F)c3)c2)s1
(e) NS(=O)(=O)c1ccc(Cc2c(-c3cccc(-c4ccccc4)c3)nn(-c3nc(C(=O)O)cs3)c2C2(C(F)(F)F)CC2)cc1
Parameters: sort_field (IC50), sort_dir (desc). // rank by listing labels in the order requested
a, c, e, d, b

---

biological target: UniProt:P00338; test: Inhibition of LDHA in human MIA PaCa-2 cells assessed as decrease in lactate production incubated for 2 hrs by lactate oxidase-coupled fluorescence based assay; assay type: cell-based
Reported endpoint: IC50 (nM)

                            compound_string       tested_on  reported_endpoint  recorded_value
0  CC(C)(C)C#Cc1cc(-c2nn(-c3nc(C(=O)O)cs3)c(CC3CC3)c2Cc2ccc(S(N)(=O)=O)c(F)c2)ccc1F  UniProt:P00338               IC50             137

(I) NS(=O)(=O)c1ccc(Cc2c(-c3ccc(F)c(/C=C/C4CCCC4)c3)nn(-c3nc(C(=O)O)cs3)c2CC2CC2)cc1F
(II) NS(=O)(=O)c1ccc(Cc2c(-c3ccc(F)c(-c4ccccc4)c3)nn(-c3nc(C(=O)O)cs3)c2CC2CC2)cc1F
Field: lower recorded IC50 (choose I or II ) Answer = label.
I

---

assay: Volume of distribution at steady state in CD-1 mouse at 10 mg/kg, iv and measured up to 24 hrs by LC/MS-MS analysis; format: ADME, organism-based; settings: in vivo
Reported endpoint: Vdss (L/kg)

>>> print(df.to_string())
                            compound_string  recorded_value
0  Cc1ccc(C#Cc2cccc(-c3nn(-c4nc(C(=O)O)cs4)c(CC4CC4)c3Cc3ccc(S(N)(=O)=O)c(F)c3)c2)s1             1.7

(I) Cc1ccc(C#Cc2cc(-c3nn(-c4nc(C(=O)O)cs4)c(CC4CC4)c3Cc3ccc(S(N)(=O)=O)c(F)c3)ccc2F)o1
(II) Cc1cnc(C#Cc2cc(-c3nn(-c4nc(C(=O)O)cs4)c(CC4CC4)c3Cc3ccc(S(N)(=O)=O)c(F)c3)ccc2F)s1
Quick check, higher Vdss between I and II ? Kindly give the label for the entry you pick.
II

---

target: L-lactate dehydrogenase A chain (Homo sapiens, UniProt P00338); test: Inhibition of LDHA in human A673 cells assessed as decrease in lactate production incubated for 2 hrs by lactate oxidase-coupled fluorescence based assay; assay type: cell-based
Reported endpoint: IC50 (nM)

>>> print(df.to_string())
                                   compound  recorded_value
0  Cn1cncc1C#Cc1cc(-c2nn(-c3nc(C(=O)O)cs3)c(CC3CC3)c2Cc2ccc(S(N)(=O)=O)c(F)c2)ccc1F            1600

(A) Cc1ccc(C#Cc2cc(-c3nn(-c4nc(C(=O)O)cs4)c(CC4CC4)c3Cc3ccc(S(N)(=O)=O)c(F)c3)ccc2F)o1
(B) NS(=O)(=O)c1ccc(Cc2c(-c3cccc(-c4ccccc4)c3)nn(-c3nc(C(=O)O)cs3)c2CC2CC2(F)F)cc1 (centres undefined)
(C) NS(=O)(=O)c1ccc(Cc2c(-c3ccc(F)c(C#CCC4CC4)c3)nn(-c3nc(C(=O)O)cs3)c2CC2CC2)cc1F
Please produce an ascending ranking of these compounds based on IC50. Returns: the labels listed in the requested order.
C, A, B
(C: 234 nM, A: 544 nM, B: 1420 nM)

(P) NS(=O)(=O)c1ccc(Cc2c(-c3cccc(C#Cc4ccc(C5CCC5)s4)c3)nn(-c3nc(C(=O)O)cs3)c2CCC2CC2)cc1F
(Q) NS(=O)(=O)c1ccc(Cc2c(-c3cccc(-c4ccccc4)c3)nn(-c3nc(C(=O)O)cs3)c2C2CC2(F)F)cc1 (centres undefined)
Just tell me: smaller IC50 value, P or Q ? Identify your pick by its label.
P

---

biological target: UniProt P00338; test: Inhibition of LDHA in human A673 cells assessed as decrease in lactate production incubated for 2 hrs by lactate oxidase-coupled fluorescence based assay; format: cell-based
Attribute: pIC50
The quantity pIC50 is defined as the negative base-10 logarithm of the molar concentration.

Some solved cases for reference:
>>> print(df.to_string())
                            compound_string       tested_on  reported_endpoint  recorded_value
0  NS(=O)(=O)c1ccc(Cc2c(-c3ccc(F)c(C#CC4CCCC4)c3)nn(-c3nc(C(=O)O)cs3)c2CC2CC2)cc1F  UniProt P00338              pIC50            6.29
1  CCCCC#Cc1cc(-c2nn(-c3nc(C(=O)O)cs3)c(CC3CC3)c2Cc2ccc(S(N)(=O)=O)c(F)c2)ccc1F  UniProt P00338              pIC50            6.39

Check the records and state pIC50 for NS(=O)(=O)c1ccc(Cc2c(-c3ccc(F)c(C#CC4CCC4)c3)nn(-c3nc(C(=O)O)cs3)c2CC2CC2)cc1F
6.42

Determine its reported pIC50: Cc1ccc(C#Cc2cccc(-c3nn(-c4nc(C(=O)O)cs4)c(CC4CC4)c3Cc3ccc(S(N)(=O)=O)c(F)c3)c2)s1
6.12

---

Below: a set of entries, each annotated with reported IC50.
test system: MIA PaCa-2; test: Cytotoxicity against human MIA PaCa-2 cells assessed as reduction in cell viability after 48 hrs by CellTiter-Glo assay; type: functional, cell-based; conditions: MIA PaCa-2, 48 h
# number only, unit nM dropped from output

In [3]: df
Out[3]:
                            compound_string  readout_units  recorded_value
0  Cc1cc(C#Cc2cccc(-c3nn(-c4nc(C(=O)O)cs4)c(CC4CC4)c3Cc3ccc(S(N)(=O)=O)c(F)c3)c2)c(C)s1             nM             810
1  Cc1nc(C#Cc2cccc(-c3nn(-c4nc(C(=O)O)cs4)c(CCC4CC4)c3Cc3ccc(S(N)(=O)=O)c(F)c3)c2)cs1             nM             219
2  Cn1cncc1C#Cc1cc(-c2nn(-c3nc(C(=O)O)cs3)c(CC3CC3)c2Cc2ccc(S(N)(=O)=O)c(F)c2)ccc1F             nM            1390
3  Cc1ncc(C#Cc2cc(-c3nn(-c4nc(C(=O)O)cs4)c(CC4CC4)c3Cc3ccc(S(N)(=O)=O)c(F)c3)ccc2F)s1             nM             488
4  NS(=O)(=O)c1ccc(Cc2c(-c3ccc(F)c(/C=C/C4CCCC4)c3)nn(-c3nc(C(=O)O)cs3)c2CC2CC2)cc1F             nM             454

Input CC(C)(C)/C=C/c1cc(-c2nn(-c3nc(C(=O)O)cs3)c(CC3CC3)c2Cc2ccc(S(N)(=O)=O)c(F)c2)ccc1F , output reported IC50.
1900

Identify the reported IC50 for the following entry. CC(C)C#Cc1cc(-c2nn(-c3nc(C(=O)O)cs3)c(CC3CC3)c2Cc2ccc(S(N)(=O)=O)c(F)c2)ccc1F
756

---

molecular target: L-lactate dehydrogenase A chain (Homo sapiens); test: Inhibition of LDHA in human MIA PaCa-2 cells assessed as decrease in lactate production incubated for 2 hrs by lactate oxidase-coupled fluorescence based assay; assay type: cell-based
Reported endpoint: IC50 (nM)

Example entries and their recorded answers appear below.
                                   compound  readout_units  recorded_value
0  Cc1ccc(C#Cc2cc(-c3nn(-c4nc(C(=O)O)cs4)c(CC4CC4)c3Cc3ccc(S(N)(=O)=O)c(F)c3)ccc2F)s1             nM             403
1  NS(=O)(=O)c1ccc(Cc2c(-c3ccc(F)c(C#CC(F)F)c3)nn(-c3nc(C(=O)O)cs3)c2CC2CC2)cc1F             nM             741
2  NS(=O)(=O)c1ccc(Cc2c(-c3ccc(F)c(C#CCN4CCOCC4)c3)nn(-c3nc(C(=O)O)cs3)c2CC2CC2)cc1F             nM           18900
3  Cn1cc(C#Cc2cc(-c3nn(-c4nc(C(=O)O)cs4)c(CC4CC4)c3Cc3ccc(S(N)(=O)=O)c(F)c3)ccc2F)cn1             nM            1140
4  Cc1cnc(C#Cc2cccc(-c3nn(-c4nc(C(=O)O)cs4)c(CC4CC4)c3Cc3ccc(S(N)(=O)=O)c(F)c3)c2)o1             nM             450
5  C/C=C/c1cc(-c2nn(-c3nc(C(=O)O)cs3)c(CC3CC3)c2Cc2ccc(S(N)(=O)=O)c(F)c2)ccc1F             nM             321
6  Cc1ccc(C#Cc2cccc(-c3nn(-c4nc(C(=O)O)cs4)c(CC4CC4)c3Cc3ccc(S(N)(=O)=O)c(F)c3)c2)o1             nM             432
7  Cc1ccc(C#Cc2cccc(-c3nn(-c4nc(C(=O)O)cs4)c(CCC4CC4)c3Cc3ccc(S(N)(=O)=O)c(F)c3)c2)s1             nM             172
8  NS(=O)(=O)c1ccc(Cc2c(-c3ccc(F)c(C#CC4CCOC4)c3)nn(-c3nc(C(=O)O)cs3)c2CC2CC2)cc1F (stereo not drawn)             nM             831
9  Cc1cc(C#Cc2cccc(-c3nn(-c4nc(C(=O)O)cs4)c(CC4CC4)c3Cc3ccc(S(N)(=O)=O)c(F)c3)c2)cs1             nM             657

(A) Cc1cnc(C#Cc2cc(-c3nn(-c4nc(C(=O)O)cs4)c(CC4CC4)c3Cc3ccc(S(N)(=O)=O)c(F)c3)ccc2F)s1
(B) Cc1ccc(C#Cc2cc(-c3nn(-c4nc(C(=O)O)cs4)c(CC4CC4)c3Cc3ccc(S(N)(=O)=O)c(F)c3)ccc2F)o1
Hey, between A and B which has a smaller measured IC50? Identify your pick by its label.
B

(A) NS(=O)(=O)c1ccc(Cc2c(-c3ccc(F)c(/C=C/C4CC4)c3)nn(-c3nc(C(=O)O)cs3)c2CC2CC2)cc1F
(B) COCC#Cc1cc(-c2nn(-c3nc(C(=O)O)cs3)c(CC3CC3)c2Cc2ccc(S(N)(=O)=O)c(F)c2)ccc1F
(C) NS(=O)(=O)c1ccc(Cc2c(-c3ccc(F)c(C#CCC4CCCO4)c3)nn(-c3nc(C(=O)O)cs3)c2CC2CC2)cc1F (stereo not drawn)
(D) Cc1ccc(/C=C/c2cccc(-c3nn(-c4nc(C(=O)O)cs4)c(CC4CC4)c3Cc3ccc(S(N)(=O)=O)c(F)c3)c2)s1
List these items ordered by IC50, big to small. Returns: the labels listed in the requested order.
C, B, D, A

(I) Cc1ccsc1C#Cc1cccc(-c2nn(-c3nc(C(=O)O)cs3)c(CC3CC3)c2Cc2ccc(S(N)(=O)=O)c(F)c2)c1
(II) NS(=O)(=O)c1ccc(Cc2c(-c3cccc(C#CC4CCCC4)c3)nn(-c3nc(C(=O)O)cs3)c2CC2CC2)cc1F
Sorting by IC50 in descending order, would I or II appear first? I would appreciate it if you answered with the label of your choice.
I
(I: 417 nM, II: 281 nM)

(1) NS(=O)(=O)c1ccc(Cc2c(-c3cccc(C#Cc4ccc(C(F)(F)F)s4)c3)nn(-c3nc(C(=O)O)cs3)c2CC2CC2)cc1F
(2) Cc1cc(C)c(C#Cc2cccc(-c3nn(-c4nc(C(=O)O)cs4)c(CC4CC4)c3Cc3ccc(S(N)(=O)=O)c(F)c3)c2)s1
(3) NS(=O)(=O)c1ccc(Cc2c(-c3cccc(-c4ccccc4)c3)nn(-c3nc(C(=O)O)cs3)c2C2CC2(F)F)cc1 (stereo not drawn)
Hello, I need these entries ordered by IC50, highest reading first. Thanks! Form entry: labels listed in requested order.
3, 1, 2
(3: 4760 nM, 1: 337 nM, 2: 218 nM)
